test system: HSkMC; experiment: cytotoxicity call (relative viability < 0.9); conditions: 10 µM
In all, about 39,000 compounds went through this assay and about 1,500 (3.8%) were called active. The sample holds actives, similar compounds and a random draw of the others, so the mix is not that of the screen.
Labels: active, inactive

test.smiles: COc1ccc(CN(C)C[C@@H]2Oc3ccc(NC(=O)Nc4ccc(C(F)(F)F)cc4)cc3C(=O)N([C@H](C)CO)C[C@H]2C)cc1
cat: active

test.smiles: COc1ccc(CN(C)C[C@@H]2Oc3ccc(NC(=O)Nc4ccc(C(F)(F)F)cc4)cc3C(=O)N([C@H](C)CO)C[C@@H]2C)cc1
cat: active

test.smiles: C[C@H](CO)N1C[C@H](C)[C@@H](CN(C)C(=O)Nc2cccc3ccccc23)Oc2ccc(NC(=O)Nc3ccc4c(c3)OCO4)cc2CC1=O
cat: active

test.smiles: COc1ccc(NC(=O)Nc2ccc3c(c2)C(=O)N([C@@H](C)CO)C[C@H](C)[C@@H](CN(C)Cc2ccc(C(F)(F)F)cc2)O3)cc1
cat: inactive

test.smiles: COc1ccc(NC(=O)Nc2cccc3c2O[C@@H](CN(C)Cc2ccc(Cl)c(Cl)c2)[C@H](C)CN([C@H](C)CO)C3=O)cc1
cat: inactive

test.smiles: C[C@@H]1CN([C@@H](C)CO)C(=O)Cc2cc(NC(=O)Nc3cccc4ccccc34)ccc2O[C@@H]1CN(C)C(=O)Nc1cccc2ccccc12
cat: inactive

test.smiles: C[C@H]1CN([C@@H](C)CO)C(=O)Cc2cc(NC(=O)Nc3cccc4ccccc34)ccc2O[C@H]1CN(C)C(=O)Nc1cccc2ccccc12
cat: inactive

* * *

test system: HSkMC; assay: cytotoxicity call (relative viability < 0.9); details: 10 µM
In all, about 39,000 compounds went through this assay and about 1,500 (3.8%) were called active. The full list was thinned out, with actives kept by preference.
Labels: label 1 for active, label 0 for inactive

test.smiles: Cc1ccc(-c2ccc3c(c2)O[C@H](CN(C)C(=O)Nc2ccc(C(F)(F)F)cc2)[C@@H](C)CN([C@H](C)CO)S3(=O)=O)cc1
system.under.test: HSkMC
cat: label 0
//
test.smiles: CC(C)(O)CC(=O)NCCn1ccc2ncnc(Nc3ccc(Oc4cccc(C(F)(F)F)c4)c(Cl)c3)c21
system.under.test: HSkMC
cat: label 0
//
test.smiles: C[C@@H]1CN([C@H](C)CO)C(=O)c2cccc(NC(=O)Nc3ccccc3)c2O[C@@H]1CN(C)S(C)(=O)=O
system.under.test: HSkMC
cat: label 0
//
test.smiles: Cc1ccc(-c2ccc3c(c2)O[C@H](CN(C)C(=O)Nc2ccc(C(F)(F)F)cc2)[C@H](C)CN([C@H](C)CO)S3(=O)=O)cc1
system.under.test: HSkMC
cat: label 0
//
test.smiles: CO[C@H]1CN(C)C(=O)c2ccc(NS(=O)(=O)CC(F)(F)F)cc2OC[C@H](C)N(C(=O)NC(C)C)C[C@H]1C
system.under.test: HSkMC
cat: label 0
//
test.smiles: Cc1ccccc1-c1ccc2c(c1)O[C@H](CN(C)C(=O)Nc1ccc(C(F)(F)F)cc1)[C@H](C)CN([C@@H](C)CO)S2(=O)=O
system.under.test: HSkMC
cat: label 0
//
test.smiles: COc1cccc(NC(=O)N(C)C[C@H]2Oc3cc(C#Cc4ccncc4)ccc3S(=O)(=O)N([C@@H](C)CO)C[C@H]2C)c1
system.under.test: HSkMC
cat: label 0
//
test.smiles: C[C@H](CO)N1C[C@H](C)[C@H](CN(C)C(=O)NC2CCCCC2)OCCCC[C@H](C)Oc2ccc(NC(=O)Nc3ccc(C(F)(F)F)cc3)cc2C1=O
system.under.test: HSkMC
cat: label 0
//
test.smiles: Cc1ccccc1-c1ccc2c(c1)O[C@@H](CN(C)C(=O)Nc1ccc(C(F)(F)F)cc1)[C@H](C)CN([C@H](C)CO)S2(=O)=O
system.under.test: HSkMC
cat: label 0
//
test.smiles: CSC1=NN(C)c2cnn(C)c(=O)c2S1
system.under.test: HSkMC
cat: label 0
//
test.smiles: CS(=O)(=O)CCNCc1ccc(-c2ccc3ncnc(Nc4ccc(OCc5cccc(F)c5)c(Cl)c4)c3c2)o1
system.under.test: HSkMC
cat: label 1
//
test.smiles: Cc1ccccc1-c1ccc2c(c1)O[C@@H](CN(C)C(=O)Nc1ccc(C(F)(F)F)cc1)[C@@H](C)CN([C@@H](C)CO)S2(=O)=O
system.under.test: HSkMC
cat: label 1
//
test.smiles: CS(=O)(=O)CCNCc1nc(-c2ccc3ncnc(Nc4ccc(OCc5cccc(F)c5)c(Cl)c4)c3c2)cs1
system.under.test: HSkMC
cat: label 1
//
test.smiles: C[C@@H]1CCCCO[C@@H](CN(C)Cc2ccc(C(F)(F)F)cc2)[C@H](C)CN([C@H](C)CO)C(=O)c2cc(NC(=O)c3ccncc3)ccc2O1
system.under.test: HSkMC
cat: label 0
//
test.smiles: Cc1ccsc1[C@@H](O)CN
system.under.test: HSkMC
cat: label 0

* * *

tested on: HSkMC; assay: cytotoxicity call (relative viability < 0.9); details: 10 µM
Out of some 39,000 compounds screened, about 1,500 (3.8%) were called active. This excerpt belongs to a sample that is enriched for actives.
Labels: active, inactive

test.smiles: C/C=C/[C@@H](CCn1cc(CCO[Si](C(C)C)(C(C)C)C(C)C)nn1)[Si](C)(C)c1ccc(OC)cc1
cat: inactive
--
test.smiles: COc1ccc(CN(C)C[C@@H]2Oc3ccc(NC(=O)Nc4ccc(C(F)(F)F)cc4)cc3C(=O)N([C@@H](C)CO)C[C@@H]2C)cc1
cat: active
--
test.smiles: Cc1ccc(S(=O)(=O)N(C)C[C@H]2Oc3ccc(N(C)C)cc3CC(=O)N([C@H](C)CO)C[C@@H]2C)cc1
cat: inactive
--
test.smiles: COc1ccc(S(=O)(=O)N(C)C[C@@H]2OCCCC[C@H](C)Oc3ccc(NC(=O)Nc4ccccc4)cc3C(=O)N([C@@H](C)CO)C[C@@H]2C)cc1
cat: inactive
--
test.smiles: C[C@@H]1CN([C@@H](C)CO)C(=O)Cc2cc(NC(=O)CCCCCC(=O)Nc3ccccc3N)ccc2O[C@@H]1CN(C)Cc1ccc(-c2ccccc2)cc1
cat: inactive
--
test.smiles: C[C@@H]1CCCCO[C@@H](CN(C)Cc2ccc(C(F)(F)F)cc2)[C@@H](C)CN([C@H](C)CO)C(=O)c2cc(NC(=O)Nc3ccc(C(F)(F)F)cc3)ccc2O1
cat: inactive
--
test.smiles: COc1ccc(CN(C)C[C@H]2Oc3ccc(NC(=O)Nc4ccc(C(F)(F)F)cc4)cc3C(=O)N([C@H](C)CO)C[C@@H]2C)cc1
cat: inactive
--
test.smiles: C[C@@H]1CCCCO[C@@H](CN(C)Cc2ccc(C(F)(F)F)cc2)[C@H](C)CN([C@@H](C)CO)C(=O)c2cc(NC(=O)Nc3ccc(C(F)(F)F)cc3)ccc2O1
cat: active
--
test.smiles: C[C@H]1CCCCO[C@@H](CN(C)Cc2ccc(C(F)(F)F)cc2)[C@@H](C)CN([C@@H](C)CO)C(=O)c2cc(NC(=O)Nc3ccc(C(F)(F)F)cc3)ccc2O1
cat: active
--
test.smiles: C[C@@H]1CCCCO[C@@H](CN(C)Cc2ccc(C(F)(F)F)cc2)[C@@H](C)CN([C@@H](C)CO)C(=O)c2cc(NC(=O)Nc3ccc(C(F)(F)F)cc3)ccc2O1
cat: active
--
test.smiles: Cc1ccc(S(=O)(=O)N(C)C[C@H]2Oc3ccc(NC(=O)CCCN(C)C)cc3CC(=O)N([C@H](C)CO)C[C@@H]2C)cc1
cat: inactive
--
test.smiles: C[C@@H]1CCCCO[C@@H](CN(C)Cc2ccc(C(F)(F)F)cc2)[C@H](C)CN([C@H](C)CO)C(=O)c2cc(NC(=O)Nc3ccc(C(F)(F)F)cc3)ccc2O1
cat: inactive
--
test.smiles: Cc1noc(C)c1NC(=O)Nc1ccc2c(c1)CC(=O)N([C@H](C)CO)C[C@@H](C)[C@@H](CN(C)C(=O)Nc1cccc3ccccc13)O2
cat: inactive

* * *

system: HSkMC (human skeletal muscle cells); assay: cytotoxicity call (relative viability < 0.9); settings: 10 µM
In all, about 39,000 compounds went through this assay and about 1,500 (3.8%) were called active. This excerpt belongs to a sample that is enriched for actives.

compound: C[C@H](CO)N1C[C@H](C)[C@@H](CN(C)Cc2ccc(-c3ccccc3)cc2)Oc2ccc(NC(=O)Nc3ccc(F)cc3)cc2CC1=O
cytotoxicity call: inactive

compound: C[C@H]1CN([C@@H](C)CO)C(=O)c2cccc(NS(=O)(=O)c3ccc(F)cc3)c2O[C@@H]1CN(C)S(=O)(=O)c1cn(C)cn1
cytotoxicity call: inactive

compound: C[C@H]1CN([C@@H](C)CO)C(=O)Cc2cc(NC(=O)Nc3ccc(F)cc3)ccc2O[C@H]1CN(C)Cc1ccc(-c2ccccc2)cc1
cytotoxicity call: active

compound: C[C@H](CO)N1C[C@H](C)[C@H](CN(C)Cc2ccc(-c3ccccc3)cc2)Oc2ccc(NC(=O)c3ccncc3)cc2CC1=O
cytotoxicity call: inactive

compound: C[C@H](CO)N1C[C@H](C)[C@H](CN(C)Cc2ccc(-c3ccccc3)cc2)Oc2ccc(NC(=O)Nc3ccc(F)cc3)cc2CC1=O
cytotoxicity call: active

compound: CC1C=CC=CC=CC=CC=CC=CC=CC(OC2OC(C)C(O)C(N)C2O)CC2OC(O)(CC(O)CC(O)C(O)CCC(O)CC(O)CC(=O)OC(C)C(C)C1O)CC(O)C2C(=O)O (configuration not stated)
cytotoxicity call: inactive

compound: C[C@@H]1CN([C@@H](C)CO)C(=O)c2ccccc2-c2ccccc2CO[C@@H]1CN(C)C(=O)Nc1ccc(F)cc1
cytotoxicity call: inactive
